Where do the numbers come from? From patent US20260137697A1.

Test system: pERK, HCT116 cells
assay_notes: Phospho-ERK inhibition, AlphaLISA p-ERK 1/2, HCT-116
Type: cell-based, human
measurement_context: Table 3; lowest % inhibition value of the pERK IC50 curve; above −20% = no paradoxical induction
property_name: HCT116 pERK (Ymin %)

Solved entries:
O=C(c1cn(-c2nc3c(Nc4c(F)ccc(NS(=O)(=O)c5cccc(Cl)c5Cl)c4F)ncnc3s2)c2ccccc12)N1C2CCC1CC(O)C2 (stereo not drawn) [Example 86] ... 4%
O=C(c1cn(-c2nc3c(Nc4c(F)ccc(NS(=O)(=O)c5cccc(Cl)c5Cl)c4F)ncnc3s2)c2ccc(F)cc12)N1C2CCC1COC2 [Example 102] ... 0%
O=S(=O)(Nc1ccc(F)c(Nc2ncnc3sc(-n4ccc5ncccc54)nc23)c1F)c1cccc(Cl)c1Cl [Example 115] ... −11%
COCCOCCOc1cccc2c1ncn2-c1nc2c(Nc3c(F)ccc(NS(=O)(=O)c4cccc(Cl)c4Cl)c3F)ncnc2s1 [Example 131] ... 0%
Cc1c(F)cccc1S(=O)(=O)Nc1ccc(F)c(Nc2ncnc3sc(-n4nc(C(=O)NCc5cccnc5)c5ccccc54)nc23)c1F [Example 24] ... 2%

Challenge: # value lookup — system pERK, HCT116 cells, readout HCT116 pERK (Ymin %), item CCS(=O)(=O)c1cn(-c2nc3c(Nc4c(F)ccc(NS(=O)(=O)c5cccc(Cl)c5Cl)c4F)ncnc3s2)c2ccccc12 [Example 63]
Response given: −5%
